Tested on: H9c2 cardiomyocytes, 2-deoxyglucose stress, ATP luminescence, 2 h
protocol text: H9c2 cell survival under 2-deoxyglucose stress – uHTS hits, dose response (AID 588780)
The source made the active and inactive calls.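 How the source made its calls: active means compounds whose fitted half-maximal concentration in the cell-protection dose series is at or below a set limit; inactive means the rest.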
The reader will find reported IC50 values listed item by item below.

{"columns": ["test smiles", "system", "IC50"],
 "data": [
  ["Cc1sc2nc(SCC(=O)N(C)C)[nH]c(=O)c2c1C", "H9c2 cardiomyocytes, 2-deoxyglucose stress, ATP luminescence, 2 h", "> 79 µM (inactive)"],
  ["O=C(CCc1nc2ccccc2c(=O)[nH]1)NNC(=O)c1cccc(Cl)c1", "H9c2 cardiomyocytes, 2-deoxyglucose stress, ATP luminescence, 2 h", "> 79 µM (inactive)"],
  ["O=C(CCc1nc2ccccc2c(=O)[nH]1)N1CCN(S(=O)(=O)c2cccc([N+](=O)[O-])c2)CC1", "H9c2 cardiomyocytes, 2-deoxyglucose stress, ATP luminescence, 2 h", "> 79 µM (inactive)"]
]}

---

Test system: H9c2 cardiomyocytes, 2-deoxyglucose stress, ATP luminescence, 2 h
protocol text: H9c2 cell survival under 2-deoxyglucose stress – uHTS hits, dose response (AID 588780)
The source made the active and inactive calls.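 How the source made its calls: active means compounds whose fitted half-maximal concentration in the cell-protection dose series is at or below a set limit; inactive means the rest.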
Outcome codes: active, inactive

{"columns": ["test smiles", "class name"],
 "data": [
  ["CC(C)n1nc(C(=O)OCC(=O)c2c[nH]c3ccccc23)c2ccccc2c1=O", "inactive"],
  ["CCOc1cc(/C=N\\NC(=O)c2ccc(NC(=O)C(C)(C)C)cc2)ccc1OC(=O)c1cccc(C)c1", "active"],
  ["O=C(N/N=C/c1ccccn1)c1[nH]c2ccc([N+](=O)[O-])cc2c1-c1ccccc1", "active"],
  ["CCc1nnc(NC(=O)CCC(=O)N2CCN(C3c4ccccc4-c4ccccc43)CC2)s1", "inactive"],
  ["O=C(COC(=O)c1ccc([N+](=O)[O-])s1)Nc1ccc(Cl)cn1", "inactive"],
  ["COc1ccc(CNc2nn3c(-c4cccc(C(=O)N(C)C)c4)cnc3s2)cc1", "inactive"]
]}

---

Test system: H9c2 cardiomyocytes, 2-deoxyglucose stress, ATP luminescence, 2 h
protocol text: H9c2 cell survival under 2-deoxyglucose stress – uHTS hits, dose response (AID 588780)
Active and inactive are the calls of the source.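 How the source made its calls: active means compounds whose fitted half-maximal concentration in the cell-protection dose series is at or below a set limit; inactive means the rest.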
Labels: y (active), n (inactive)

{"columns": ["test smiles", "class name"],
 "data": [
  ["O=C(COc1ccccc1Cl)NNC(=O)Cn1[nH]c(=O)c2ccccc2c1=O", "n"],
  ["CS/C(=N\\S(=O)(=O)c1ccccc1)c1ccccc1", "n"],
  ["COc1ccc(-c2csc(NC(=O)CCCc3nc4ccccc4c(=O)[nH]3)n2)cc1OC", "y"]
]}

---

System: H9c2 cardiomyocytes, 2-deoxyglucose stress, ATP luminescence, 2 h
protocol text: H9c2 cell survival under 2-deoxyglucose stress – uHTS hits, dose response (AID 588780)
Calls of active or inactive are those of the source.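 How the source made its calls: active means compounds whose fitted half-maximal concentration in the cell-protection dose series is at or below a set limit; inactive means the rest.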
Labels: yes for active, no for inactive

{"columns": ["compound", "class name"],
 "data": [
  ["CCOC(=O)C1CCN(c2cc3c(cc2NC(=O)c2ccccc2)n(C)c(=O)n3C)CC1", "no"],
  ["C[C@H](NC(=O)c1nc[nH]c1C(=O)NCC(=O)OCc1ccccc1)C(=O)OCc1ccccc1", "no"],
  ["COc1ccc(-c2nnc(NC(=O)c3ccc(F)cc3)o2)cc1", "no"],
  ["CCn1nc(C(=O)NNC(=O)c2cc(Cl)ccc2OC)c2ccccc2c1=O", "no"],
  ["COc1ccc2nc(Nc3nc(CSc4nc5ccccc5[nH]4)cc(=O)[nH]3)nc(C)c2c1", "no"],
  ["COc1cc(/C=N\\NC(=O)c2cccnc2)ccc1OC(=O)c1ccccc1Cl", "no"],
  ["Cc1ccccc1OCC(=O)NNC(=O)Cn1[nH]c(=O)c2ccccc2c1=O", "no"],
  ["Nc1ccc2nc(-c3cccs3)[nH]c2c1", "no"],
  ["CCc1nc2ccccc2c(C(=O)OCc2nc3ccccc3c(=O)[nH]2)c1C", "yes"],
  ["CCN(C[C@H]1N[C@@](CC)(C(=O)OC)[C@H]2C(=O)N(Cc3ccccc3)C(=O)[C@@H]12)C(=O)c1ccc(C(C)(C)C)cc1", "no"],
  ["O=C(Nc1cc(S(=O)(=O)N2CCOCC2)ccc1N1CCCCC1)c1cc(-c2ccccn2)nc2ccccc12", "no"],
  ["CCOC(=O)C1CCN(c2cc3c(cc2NC(=O)c2ccccc2Br)n(C)c(=O)n3C)CC1", "no"],
  ["COc1ccc(Cc2n[nH]c(=O)c3ccccc23)cc1OC", "no"],
  ["CCCNC(=O)c1c(N)n(-c2cccc(OC)c2)c2nc3ccccc3nc12", "no"],
  ["COCCCN(Cc1ccco1)C(=O)Cn1ncc2c([nH]c3ccccc32)c1=O", "yes"],
  ["O=C1Nc2cnc(Cl)nc2Nc2ccccc21", "no"],
  ["CCCCOc1ccc(C(=O)N/C(=C\\c2ccc(OC)cc2)C(=O)OCc2ccco2)cc1", "no"],
  ["COc1cc(-c2cc(NC(C)=O)c3ncc(-c4ccccc4)n3c2)cc(OC)c1OC", "no"],
  ["NC(=O)c1ccc(Nc2nnc(-c3ccc(O)cc3)c3ccccc23)cc1", "yes"],
  ["CCn1nc(C(=O)OCC(=O)c2c[nH]c3ccccc23)c2ccccc2c1=O", "yes"],
  ["CCOC(=O)Cc1c(C)nc2c(-c3ccc(Cl)cc3)c[nH]n2c1=O", "no"],
  ["Cc1cccc(N=Cc2cc(Br)cc(Cl)c2O)c1", "no"],
  ["CC(=O)c1ccc(-c2cnc3c(NC=O)cc(-c4cccc(NS(C)(=O)=O)c4)cn23)cc1", "no"],
  ["O=c1[nH]c2ccccc2n1CCCN1CCC(n2c(=O)[nH]c3cc(Cl)ccc32)CC1", "no"],
  ["CC(=O)Oc1ccc(C(=O)OCC(=O)c2c(N)n(C)c(=O)n(C)c2=O)cc1OC(C)=O", "no"],
  ["COc1ccc(OC)c(NC(=O)c2sc3ncnc(N4CCN(c5ccccn5)CC4)c3c2C)c1", "no"],
  ["O=C(Cn1[nH]c(=O)c2ccccc2c1=O)OCC(=O)N(Cc1ccccc1)Cc1ccccc1", "no"],
  ["COC(=O)c1cc2ccccn2c2c(C(=O)OC)c(C(=O)OC)cc1-2", "no"],
  ["O=C(C[C@H]1C/C=C\\CC[C@H](Cc2ccc(F)cc2)C(=O)O[C@@H](c2ccccc2)CNC1=O)N[C@H](CO)Cc1ccccc1", "no"],
  ["COc1ccc(NC(=O)CCc2nc3ccccc3c(=O)[nH]2)cc1S(=O)(=O)N1CCCCC1", "no"],
  ["CN(C)C(=O)CSc1nc2ccccc2c(=O)[nH]1", "no"],
  ["CCCCN1CC(COCc2ccccc2)Oc2cccc(OCCN3C(=O)[C@@H]4[C@H](C3=O)C3C=C[C@H]4C3)c2S1(=O)=O (stereo not given in full)", "no"],
  ["COc1ccccc1-c1cc2nc(-c3ccccc3)cc(N3CCN(C(=O)c4ccoc4)CC3)n2n1", "no"],
  ["COc1cc(OC)cc(C(=O)Nc2ccc(C(=O)Nc3ccccc3OC)cc2)c1", "yes"],
  ["COc1ccc(C(=O)COC(=O)c2ccc([N+](=O)[O-])s2)cc1OC", "no"]
]}
